Experiment: NCI Yeast Anticancer Drug Screen. Data for the CLN2oe strain (AID 163);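 further: 0% = growth of vehicle-only control cultures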
Conditions: S. cerevisiae CLN2oe strain, at 11.0 µM, active compounds read high
About 79,000 compounds went through this panel and 15% of them were active in at least one assay; those are over-represented in the sample as a whole.
recorded-metric: growth inhibition (%)

compound="C[C@H](CCC1=NC(C)(C)CO1)C1CCC2[C@@H]3C(O)C[C@@H]4CC(O)CC[C@]4(C)C3CC[C@@]21C (some centres not stated)" recorded_metric="growth inhibition" units_of_measure=% assay_result=-11
compound=CN(C)CCNc1ccc2ncn3c4ccc(O)cc4c(=O)c1c23 recorded_metric="growth inhibition" units_of_measure=% assay_result=9
compound=CN(CCOc1ccc(Cl)cc1)CCOc1ccc(Cl)cc1 recorded_metric="growth inhibition" units_of_measure=% assay_result=50
compound=CCOC(=O)/C(=C\c1cccc(C)c1)C(C)=O recorded_metric="growth inhibition" units_of_measure=% assay_result=55
compound="O=C1c2ccccc2N2OC3(N4CCCC4)CCCCC3C12c1ccccc1 (configuration not stated)" recorded_metric="growth inhibition" units_of_measure=% assay_result=-10
compound=CCCCCCCCCCCCOCCOCCOCC(N)=O recorded_metric="growth inhibition" units_of_measure=% assay_result=-13
compound=CC(C)N(CCCNc1c2ccccc2nc2cccc([N+](=O)[O-])c12)C(C)C recorded_metric="growth inhibition" units_of_measure=% assay_result=51
compound=CCCCN(CCC#N)c1ccc(/C=C/c2ccnc3ccccc23)cc1 recorded_metric="growth inhibition" units_of_measure=% assay_result=-22
compound=O=S(=O)(NNc1ccccc1)c1ccccc1 recorded_metric="growth inhibition" units_of_measure=% assay_result=5
compound="CC(=O)CC(c1ccccc1)c1c(O)c2ccccc2oc1=O (configuration not stated)" recorded_metric="growth inhibition" units_of_measure=% assay_result=6
compound=O=C1c2ccccc2C(=O)c2c(O)c(NCCNCCO)cc(O)c21 recorded_metric="growth inhibition" units_of_measure=% assay_result=29
compound=CC(C)NCCCNc1c2ccccc2nc2cccc([N+](=O)[O-])c12 recorded_metric="growth inhibition" units_of_measure=% assay_result=96
compound=O=[N+]([O-])c1ccc2nc(=S)[nH]n2c1 recorded_metric="growth inhibition" units_of_measure=% assay_result=-4
compound=O=C(C(Cl)=C(N1CCCCC1)N1CCCCC1)C(Cl)Cl recorded_metric="growth inhibition" units_of_measure=% assay_result=3
compound=NC(=O)NC1C(c2ccccc2)=C1c1ccccc1 recorded_metric="growth inhibition" units_of_measure=% assay_result=-3
compound=O=C1C[C@H]2[C@H](c3ccc(Br)cc3)[C@H]3C(=O)c4ccccc4NC(=O)[C@@H]3[C@@]2(O)c2ccccc2N1 recorded_metric="growth inhibition" units_of_measure=% assay_result=16
compound=CC(=O)CCC1=C(C)C(=O)C(=O)C(C)=C1O recorded_metric="growth inhibition" units_of_measure=% assay_result=7

----------
Catalogue of growth inhibition readings, one per entry.
Assay: NCI Yeast Anticancer Drug Screen. Data for the rad50EPP+ strain (AID 151);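 further: 0% = growth of vehicle-treated control cultures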
Settings: S. cerevisiae rad50 mutant strain, at 3.7 µM, active compounds read high
Compounds without any hit were thinned out: in the full panel of roughly 79,000, 15% have a hit.
recorded-metric: growth inhibition (%)

compound=CC(C)=CCC/C(C)=C/CN1C(=O)C=CC1=O assay_result=86
compound=O=C(/N=N/C(=O)Oc1ccccc1)Oc1ccccc1 assay_result=-110
compound=CCC(/C=C/c1ccccc1)=N\Nc1ccc(Cl)cc1 assay_result=9
compound=O=C1c2ccccc2-c2cc3ccccc3c(=O)n21 assay_result=76
compound=O=C1c2ccccc2C(=O)c2sc(Nc3ccccc3Cl)nc21 assay_result=27
compound=O=[N+]([O-])c1ccc2nc(=S)[nH]n2c1 assay_result=6
compound=CC(=O)/C=C/c1cc([N+](=O)[O-])ccc1O assay_result=-4
compound="O=CC1(F)CC1(c1ccccc1)c1ccccc1 (configuration not stated)" assay_result=0
compound=CCN(CC)CCNc1ccc2nc(C)n3c4ccc(OC)cc4c(=O)c1c23 assay_result=9
compound=Cc1cc(C)c(S(=O)(=O)c2ccc(Cl)cc2)c(C)c1 assay_result=9
compound=Cc1cccc(/C=N/NC(=S)NC2CCCCC2)n1 assay_result=-8
compound=COc1ccc2nc3cccc([N+](=O)[O-])c3c(NCCCCCC(=O)O)c2c1 assay_result=81
compound=Nc1cc(Cl)ccc1Nc1ccccc1 assay_result=-21
compound=CN(C)CCNC(=Cc1ccc2ccccc2[n+]1C)NCCN(C)C assay_result=0
compound=O=C1c2ccccc2C(=O)c2c(O)c(NCCNCCO)cc(O)c21 assay_result=8
compound=O=C(CN(c1ccccc1)c1ccccc1)n1nnc2ccccc21 assay_result=7
compound=Oc1c2c(c(O)c3ccccc13)C1(N=N2)c2ccccc2Oc2ccccc21 assay_result=54

----------
Experiment: NCI Yeast Anticancer Drug Screen. Data for the mec2-1 strain (AID 157)
Details: S. cerevisiae mec2-1 strain, at 33.0 µM, active compounds read high
Compounds without any hit were thinned out: in the full panel of roughly 79,000, 15% have a hit.
Classes based on growth inhibition: bin A = under 10%, bin B = from 10% up to 50%, bin C = 50% and over

compound="N#CC1OB(O)c2ccccc21 (stereo not given)" qualitative_label="bin A"
compound=CCCCS/C(=C(/C#N)C(N)=O)c1cc2c([nH]1)CCCC2 qualitative_label="bin A"
compound=COc1ccc2nc(CCc3ccccc3)ccc2c1 qualitative_label="bin A"
compound="O=S(=O)(c1cccc(C(F)(F)F)c1)N1c2ccccc2-n2cccc2C1c1cccnc1 (stereo not given)" qualitative_label="bin C"
compound=CNC(=O)OCc1c2ccncc2c(C)c2c1[nH]c1ccccc12 qualitative_label="bin C"
compound=COC(=N)c1ccc(O)c(C)c1 qualitative_label="bin A"
compound=O=C(O)c1ccc2cc(Cl)c3ccccc3c2c1 qualitative_label="bin B"
compound=Oc1ccc(N=Nc2ccc(Cl)cc2)cc1 qualitative_label="bin C"
compound=CNC(=S)N/N=C(/C)CCC/C(C)=N/NC(=S)NC qualitative_label="bin B"
compound=CCCCCCCCNCCCCCCCC qualitative_label="bin C"
compound="CC(C)C(=O)CC(Sc1ccc(N)cc1)c1ccccc1 (stereo not given)" qualitative_label="bin B"
compound=CC1(C)OC(=O)C(=Cc2ccc([N+](=O)[O-])s2)C(=O)O1 qualitative_label="bin B"
compound="[N-]=[N+]=NC1(c2ccccc2)C(=O)Nc2ccccc2C1=O (stereo not given)" qualitative_label="bin B"
compound=COc1ccc(C(=O)/C=C\c2ccc(Cl)c(Cl)c2)cc1 qualitative_label="bin B"

----------
Test: NCI Yeast Anticancer Drug Screen. Data for the mlh1 strain (AID 171);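 further: 0% = growth of vehicle-treated control cultures of the same strain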
Conditions: S. cerevisiae mlh1 strain growth inhibition; at 100.0 µM
This is part of a sample that, as a whole, favours compounds with a hit. Of some 79,000 tested, about 15% had one in any assay. The source made the active and inactive calls. No stated cut-off is given here; in the data, active means growth inhibition above about 70%; inactive means the rest. Residues, ends and D or L forms follow the SMILES beside them. *: point of attachment. Fmoc = O=C(OCC1c2ccccc2-c2ccccc21)*; Boc = CC(C)(C)OC(=O)*
Outcome codes: class 1 for active, class 0 for inactive

compound=COc1ccccc1NC(=O)c1ccc(Cl)cc1 qualitative_label="class 0"
compound=N#C/C(=C\NC(=S)Nc1ccc(S(N)(=O)=O)cc1)C(=O)c1ccc2ccccc2c1 qualitative_label="class 0"
compound=O=C(/N=N/C(=O)Oc1ccccc1)Oc1ccccc1 qualitative_label="class 0"
compound="COC1/C=C\\C=C(/C)C(=O)NC2=CC(=O)C(=O)C(=C2O)CC(C)CC(OC)C(O)C(C)/C=C(\\C)C1OC(N)=O (stereo not given)" qualitative_label="class 1"
compound="CC(C)(C)OC(=O)NCCCCC(NC(=O)C(Cc1c[nH]c2ccccc12)NC(=O)OCC1c2ccccc2-c2ccccc21)C(=O)O (stereo not given) (Fmoc-Trp-Lys(Boc)-OH; configuration not given here)" qualitative_label="class 1"
compound=O=[N+]([O-])c1ccc(/C=C\c2ccc3c(c2)OCO3)c([N+](=O)[O-])c1 qualitative_label="class 0"
compound=CCOc1ccc2nc3ccccc3c(N)c2c1 qualitative_label="class 1"
compound="O=C(O)C1CCCCC1c1c2ccc(=O)cc-2oc2cc(O)ccc12 (stereo not given)" qualitative_label="class 1"
compound=OC(c1ccccc1)(c1ccccc1)c1nccc2ccccc12 qualitative_label="class 0"
compound=NC(=S)N1N=C2c3ccccc3CC[C@H]2[C@@H]1c1ccc(Cl)cc1 qualitative_label="class 1"
compound=Cc1cc(OCc2nc(N)nc(N)c2-c2ccc(Cl)c(Cl)c2)ccc1[N+](=O)[O-] qualitative_label="class 0"
compound=COc1ccc2cc3c4cc5c(cc4cc[n+]3cc2c1OC)OCO5 qualitative_label="class 1"
compound=O=[N+]([O-])c1cc(Cl)ccc1S(=O)(=O)c1ccc(Cl)cc1[N+](=O)[O-] qualitative_label="class 1"
compound="CCC[CH2][Ge]([CH2]CCC)([CH2]CCC)[O]C(=O)C(O)c1ccccc1 (stereo not given)" qualitative_label="class 1"
compound=CCCCS/C(=C(/C#N)C(N)=O)c1cc2c([nH]1)CCCC2 qualitative_label="class 0"
compound=O=C1Nc2ccc(Br)cc2C1=Nc1ccc(Cl)cc1 qualitative_label="class 0"
compound=CCN(CC)CCNc1ccc2nc(C)n3c4ccc(O)cc4c(=O)c1c23 qualitative_label="class 0"
compound=CC1(C)CC(=O)C(C=NC(=S)C(N)=S)=C(O)C1 qualitative_label="class 1"
compound="Cc1ccc(NC(=O)CCC(=O)C(C)C(=O)c2ccccc2)c(C)c1 (stereo not given)" qualitative_label="class 0"
compound=O/N=c1/ccn(O)c2ccccc12 qualitative_label="class 1"
compound=CCC(C)(C)c1ccc(Oc2ccccc2)c(N)c1 qualitative_label="class 1"
compound=O=S(=O)(NNc1ccccc1)c1ccccc1 qualitative_label="class 1"
compound=CC(C)(CN1CCCCC1)C(=O)/C=C/c1c(Cl)cccc1Cl qualitative_label="class 1"
compound=O=C(c1ccccc1)[C@H]1Nc2ccc(Cl)cc2[C@H]2OCCC[C@@H]12 qualitative_label="class 1"
compound="O=C(NNc1ccccc1)C(CCCCNS(=O)(=O)Cc1ccccc1)NS(=O)(=O)Cc1ccccc1 (stereo not given)" qualitative_label="class 0"
compound="O=C(Cc1ccccc1)NN1C(=O)C(Cl)C1c1cc(Br)cc(Br)c1O (stereo not given)" qualitative_label="class 1"
compound=O=C(NO)c1coc2ccccc2c1=O qualitative_label="class 0"
compound="CC(CN(C)C)C(=O)/C=C/c1ccc(Cl)c(Cl)c1 (stereo not given)" qualitative_label="class 1"
compound=C[N+](C)([O-])CCCNc1c2ccccc2nc2cccc([N+](=O)[O-])c12 qualitative_label="class 1"
compound="CC1=CN2C(c3ccccc3)=NON(c3ccc(C)cn3)C2C=C1 (stereo not given)" qualitative_label="class 0"
compound=COC(=O)C(Cl)(Cl)N=Nc1c(Cl)cc(Cl)c(C)c1Cl qualitative_label="class 1"
compound=CC(C)CCC[C@@H](C)[C@H]1CC[C@H]2[C@@H]3CC[C@H]4C[C@H](N)CC[C@]4(C)[C@H]3CC[C@]12C qualitative_label="class 0"
compound=O=C1c2ccccc2C(=O)c2sc(Nc3ccccc3Cl)nc21 qualitative_label="class 1"
compound="O=C1SS(=O)c2ccccc21 (stereo not given)" qualitative_label="class 0"
compound=Cc1cccc2c(NCCCN(C)C)c3c([N+](=O)[O-])ccc(C)c3nc12 qualitative_label="class 1"
